meta.source: patent US11319324B2

Listed here are compounds together with their documented IC50.
# ASSAY_TARGET: human P2X3 receptor (Homo sapiens, UniProt P56373)
# Sequence (P56373 whole entry): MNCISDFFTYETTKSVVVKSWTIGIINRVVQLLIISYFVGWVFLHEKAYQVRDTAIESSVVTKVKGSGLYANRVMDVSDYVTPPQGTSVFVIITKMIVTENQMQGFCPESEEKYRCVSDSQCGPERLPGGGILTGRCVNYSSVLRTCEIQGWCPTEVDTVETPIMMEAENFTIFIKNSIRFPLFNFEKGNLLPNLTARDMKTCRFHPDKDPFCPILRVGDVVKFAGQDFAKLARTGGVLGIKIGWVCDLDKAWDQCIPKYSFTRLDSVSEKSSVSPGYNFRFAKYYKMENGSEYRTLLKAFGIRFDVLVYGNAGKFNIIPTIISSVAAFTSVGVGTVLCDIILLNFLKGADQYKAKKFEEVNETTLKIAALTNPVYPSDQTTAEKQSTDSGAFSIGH
# EXPERIMENTAL_DETAILS: Intracellular calcium measurement to assess antagonist activity at human P2X3 receptors (hP2X3 CHO), photina luminescence
# Format: cell-based
# Design: expressed in transfected cells; host or cells: Chinese hamster ovary (CHO) cells
# CONDITION_SUMMARY: column 2), CHO cells, agonist α,β-methylene-ATP at EC50

[
  {
    "COMPOUND": "CC[C@@H](C)N1Cc2c(n(CC(=O)Nc3ccc(F)cn3)c3cc(C(F)(F)F)nn3c2=O)C1=O [Example 14]",
    "ASSAY_TARGET": "human P2X3 receptor (Homo sapiens, UniProt P56373)",
    "IC50 (nM)": 60
  },
  {
    "COMPOUND": "CC(C)N1Cc2c(n(CC(=O)Nc3ccc(F)cn3)c3cc(C4CCS(=O)(=O)CC4)nn3c2=O)C1=O [Example 229]",
    "ASSAY_TARGET": "human P2X3 receptor (Homo sapiens, UniProt P56373)",
    "IC50 (nM)": 39
  },
  {
    "COMPOUND": "COC[C@H](C)N1Cc2c(n(CC(=O)Nc3ccc(F)cn3)c3cc(C)nn3c2=O)C1=O [Example 41]",
    "ASSAY_TARGET": "human P2X3 receptor (Homo sapiens, UniProt P56373)",
    "IC50 (nM)": 51
  },
  {
    "COMPOUND": "CC[C@@H](C)N1Cc2c(n(CC(=O)Nc3ccc(Cl)cn3)c3cc(C(F)(F)F)nn3c2=O)C1=O [Example 15]",
    "ASSAY_TARGET": "human P2X3 receptor (Homo sapiens, UniProt P56373)",
    "IC50 (nM)": 49
  }
]
